Tested on: MCF7
Experiment: Antiproliferative activity against human MCF7 cells assessed as cell proliferation after 72 hrs by MTT assay
Type: functional
Design: concentration or dose not given beside the values
measured-attribute: Cell proliferation
Phrase the answer as number then unit, nothing more needed.

Known Cell proliferation results, listed for orientation:
[
  {
    "molecule": "C=CCCC(=O)Nc1ccccc1NC(=O)OC(C)(C)C",
    "Cell proliferation": "50%"
  },
  {
    "molecule": "CC(C)(C)OC(=O)ON(C(=O)CC/C=C/CCC(=O)N(OC(=O)OC(C)(C)C)C(=O)OC(C)(C)C)C(=O)OC(C)(C)C",
    "Cell proliferation": "100%"
  },
  {
    "molecule": "C=CCCC(=O)N(OC(=O)OC(C)(C)C)C(=O)OC(C)(C)C",
    "Cell proliferation": "94%"
  },
  {
    "molecule": "CC(C)(C)OC(=O)Nc1ccccc1NC(=O)CCCCCCC(=O)Nc1ccccc1NC(=O)OC(C)(C)C",
    "Cell proliferation": "87%"
  },
  {
    "molecule": "Nc1ccccc1NC(=O)CCCCCCC(=O)Nc1ccccc1N",
    "Cell proliferation": "92%"
  },
  {
    "molecule": "CC(C)(C)OC(=O)ON(C(=O)CCCCCCC(=O)N(OC(=O)OC(C)(C)C)C(=O)OC(C)(C)C)C(=O)OC(C)(C)C",
    "Cell proliferation": "92%"
  }
]

Requested read-out: Cell proliferation. Entry: O=C(CCCCCCC(=O)NO)NO [SUBEROHYDROXAMIC ACID]
93%
